Measurement record for Tyrosine-protein kinase BTK (Homo sapiens); quantity recorded: IC50.
Numbers only here, please. The scale is nM.

Worked cases, IC50 given:
C=CC(=O)Nc1cccc(Nc2nc(Nc3cc4c(cc3F)COB4O)ncc2C(F)(F)F)c1: 156
C=CC(=O)Nc1cccc(Nc2nc(Nc3cccc(B(O)O)c3)ncc2C(F)(F)F)c1: 6.5
C=CC(=O)Nc1cccc(Nc2nc(Nc3ccc4c(c3)COB4O)ncc2C(F)(F)F)c1: 0.6

# C=CC(=O)Nc1cccc(Nc2nc(Nc3ccc(B(O)O)cc3)ncc2C(F)(F)F)c1 with Tyrosine-protein kinase BTK (Homo sapiens): IC50 is 1.5

# C=CC(=O)Nc1cccc(Nc2nc(Nc3ccc4c(c3)B(O)OC4)ncc2C(F)(F)F)c1 with Tyrosine-protein kinase BTK (Homo sapiens): IC50 is 2.9

---

Test system: JeKo-1
Experiment: cells
Conditions: Homo sapiens, JeKo-1, 72 h
Description: Antiproliferative activity against human JeKo1 cells assessed as reduction in cell viability incubated for 72 hrs by CCK-8 assay
value kind: IC50
Kindly write the number and append the unit.

Worked cases, IC50 given:
C=CC(=O)Nc1cccc(Nc2nc(Nc3ccc4c(c3)COB4O)ncc2C(F)(F)F)c1: 500 nM
C=CC(=O)Nc1cccc(Nc2nc(Nc3ccc(OCCOC)cc3)ncc2F)c1 [SPEBRUTINIB]: 1300 nM

Recorded IC50 (compound C=CC(=O)Nc1cccc(Nc2nc(Nc3ccc4c(c3)B(O)OC4)ncc2C(F)(F)F)c1 ): 1200 nM

---

Measurement record for Tyrosine-protein kinase JAK3 (Homo sapiens, UniProt P52333); quantity recorded: IC50.
Numbers only here, please. The scale is nM.

Worked cases, IC50 given:
C=CC(=O)Nc1cccc(Nc2nc(Nc3ccc4c(c3)COB4O)ncc2C(F)(F)F)c1: 0.4
C=CC(=O)Nc1cccc(Oc2nc(Nc3ccc4c(c3)COB4O)ncc2OC)c1: 0.8
C=CC(=O)Nc1cccc(Nc2nc(Nc3ccc4c(c3)B(O)OC4)ncc2C(F)(F)F)c1: 0.5

# C=CC(=O)Nc1cccc(Nc2nc(Nc3ccc(OCCOC)cc3)ncc2F)c1 with Tyrosine-protein kinase JAK3 (Homo sapiens, UniProt P52333): IC50 is 8.5

---

Measurement record for UniProt O60674; quantity recorded: IC50.
Sequence (O60674 whole entry): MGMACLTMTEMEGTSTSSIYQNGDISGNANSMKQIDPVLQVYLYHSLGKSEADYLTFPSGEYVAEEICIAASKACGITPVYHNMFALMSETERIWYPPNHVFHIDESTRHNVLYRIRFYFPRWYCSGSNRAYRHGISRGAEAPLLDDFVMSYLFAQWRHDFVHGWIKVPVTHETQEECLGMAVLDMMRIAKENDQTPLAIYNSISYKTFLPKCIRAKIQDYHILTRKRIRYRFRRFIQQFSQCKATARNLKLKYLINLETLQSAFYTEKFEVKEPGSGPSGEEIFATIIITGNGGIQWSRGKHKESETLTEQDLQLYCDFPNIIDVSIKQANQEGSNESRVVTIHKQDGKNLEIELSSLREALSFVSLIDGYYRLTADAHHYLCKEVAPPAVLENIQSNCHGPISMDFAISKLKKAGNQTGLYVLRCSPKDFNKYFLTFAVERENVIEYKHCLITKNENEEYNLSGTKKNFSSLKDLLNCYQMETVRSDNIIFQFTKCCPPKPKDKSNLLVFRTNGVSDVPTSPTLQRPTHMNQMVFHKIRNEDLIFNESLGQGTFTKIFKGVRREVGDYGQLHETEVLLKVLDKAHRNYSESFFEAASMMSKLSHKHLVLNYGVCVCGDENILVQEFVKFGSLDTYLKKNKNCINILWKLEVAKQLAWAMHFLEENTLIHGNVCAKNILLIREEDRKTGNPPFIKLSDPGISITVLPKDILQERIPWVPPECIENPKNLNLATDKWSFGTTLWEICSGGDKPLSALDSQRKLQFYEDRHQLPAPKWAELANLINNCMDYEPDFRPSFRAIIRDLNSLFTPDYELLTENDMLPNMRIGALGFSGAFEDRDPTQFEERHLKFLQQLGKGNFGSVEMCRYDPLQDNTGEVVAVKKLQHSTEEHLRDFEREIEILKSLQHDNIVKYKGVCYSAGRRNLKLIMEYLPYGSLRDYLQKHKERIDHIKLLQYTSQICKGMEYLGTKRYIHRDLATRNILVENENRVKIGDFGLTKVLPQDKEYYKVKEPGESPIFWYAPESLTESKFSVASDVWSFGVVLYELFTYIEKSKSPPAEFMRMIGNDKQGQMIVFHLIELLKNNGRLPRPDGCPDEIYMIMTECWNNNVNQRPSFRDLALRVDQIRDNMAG

Worked cases, IC50 given:
C=CC(=O)Nc1cccc(Oc2nc(Nc3ccc4c(c3)COB4O)ncc2OC)c1: > 1000 nM
C=CC(=O)Nc1cccc(Nc2nc(Nc3ccc4c(c3)B(O)OCC4)ncc2C(F)(F)F)c1: > 1000 nM
C=CC(=O)Nc1cccc(Nc2nc(Nc3ccc(B(O)O)cc3)ncc2C(F)(F)F)c1: 891 nM

Field: next compound
Recorded IC50 (compound C=CC(=O)Nc1cccc(Nc2nc(Nc3ccc4c(c3)B(O)OC4)ncc2C(F)(F)F)c1 ): 972 nM

---

Collected Ratio IC50 values appear next to each entry.
Species: Homo sapiens
Test: Selectivity index, ratio of IC50 for recombinant human N-terminal GST-tagged JAK1 (850 to 1154 residues) expressed in baculovirus expression system to IC50 for recombinant human N-terminal His-tagged JAK3 (795 to 1124 residues) expressed in baculovirus expression system

Worked cases, Ratio IC50 given:
C=CC(=O)Nc1cccc(Nc2nc(Nc3ccc4c(c3)B(O)OC4)ncc2C(F)(F)F)c1: > 1000
C=CC(=O)Nc1cccc(Nc2nc(Nc3ccc4c(c3)COB4O)ncc2C(F)(F)F)c1: > 1000

Recorded Ratio IC50 (compound C=CC(=O)Nc1cccc(Nc2nc(Nc3ccc4c(c3)B(O)OCC4)ncc2C(F)(F)F)c1 ): > 1000

Recorded Ratio IC50 (compound C=CC(=O)Nc1cccc(Nc2nc(Nc3ccc(B(O)O)cc3)ncc2C(F)(F)F)c1 ): > 1000

Recorded Ratio IC50 (compound C=CC(=O)Nc1cccc(Oc2nc(Nc3ccc4c(c3)COB4O)ncc2OC)c1 ): > 1000

Recorded Ratio IC50 (compound C=CC(=O)Nc1cccc(Nc2nc(Nc3ccc4c(c3)B(O)OC4(C)C)ncc2C(F)(F)F)c1 ): > 1000

---

Collected Ratio IC50 values appear next to each entry.
Species on record: Homo sapiens
Assay: Selectivity index, ratio of IC50 for recombinant human N-terminal His-tagged JAK2 (826 to 1132 residues) expressed in baculovirus expression system to IC50 for recombinant human N-terminal His-tagged JAK3 (795 to 1124 residues) expressed in baculovirus expression system

C=CC(=O)Nc1cccc(Nc2nc(Nc3ccc4c(c3)COB4O)ncc2C(F)(F)F)c1: > 1000
C=CC(=O)Nc1cccc(Nc2nc(Nc3ccc4c(c3)B(O)OC4(C)C)ncc2C(F)(F)F)c1: > 1000
C=CC(=O)Nc1cccc(Oc2nc(Nc3ccc4c(c3)COB4O)ncc2OC)c1: > 1000
C=CC(=O)Nc1cccc(Nc2nc(Nc3ccc(B(O)O)cc3)ncc2C(F)(F)F)c1: > 1000

Recorded Ratio IC50 (compound C=CC(=O)Nc1cccc(Nc2nc(Nc3ccc4c(c3)B(O)OCC4)ncc2C(F)(F)F)c1 ): > 1000

Recorded Ratio IC50 (compound C=CC(=O)Nc1cccc(Nc2nc(Nc3ccc4c(c3)B(O)OC4)ncc2C(F)(F)F)c1 ): > 1000

---

Assay: in vitro
Details: human, liver microsomes
value kind: half-life at 1 h, 0.2 µM
Kindly write the number and append the unit.

Worked cases, half-life at 1 h, 0.2 µM given:
C=CC(=O)Nc1cccc(Nc2nc(Nc3ccc4c(c3)B(O)OC4)ncc2C(F)(F)F)c1: 55.9 min
C=CC(=O)Nc1cccc(Nc2nc(Nc3ccc4c(c3)COB4O)ncc2C(F)(F)F)c1: 58.8 min

Recorded half-life at 1 h, 0.2 µM (compound C=CC(=O)Nc1cccc(Nc2nc(Nc3ccc(OCCOC)cc3)ncc2F)c1 ): 43.4 min

---

Target: Tyrosine-protein kinase JAK1 (Homo sapiens, UniProt P23458)
Sequence (P23458 whole entry, the tested form may be a part): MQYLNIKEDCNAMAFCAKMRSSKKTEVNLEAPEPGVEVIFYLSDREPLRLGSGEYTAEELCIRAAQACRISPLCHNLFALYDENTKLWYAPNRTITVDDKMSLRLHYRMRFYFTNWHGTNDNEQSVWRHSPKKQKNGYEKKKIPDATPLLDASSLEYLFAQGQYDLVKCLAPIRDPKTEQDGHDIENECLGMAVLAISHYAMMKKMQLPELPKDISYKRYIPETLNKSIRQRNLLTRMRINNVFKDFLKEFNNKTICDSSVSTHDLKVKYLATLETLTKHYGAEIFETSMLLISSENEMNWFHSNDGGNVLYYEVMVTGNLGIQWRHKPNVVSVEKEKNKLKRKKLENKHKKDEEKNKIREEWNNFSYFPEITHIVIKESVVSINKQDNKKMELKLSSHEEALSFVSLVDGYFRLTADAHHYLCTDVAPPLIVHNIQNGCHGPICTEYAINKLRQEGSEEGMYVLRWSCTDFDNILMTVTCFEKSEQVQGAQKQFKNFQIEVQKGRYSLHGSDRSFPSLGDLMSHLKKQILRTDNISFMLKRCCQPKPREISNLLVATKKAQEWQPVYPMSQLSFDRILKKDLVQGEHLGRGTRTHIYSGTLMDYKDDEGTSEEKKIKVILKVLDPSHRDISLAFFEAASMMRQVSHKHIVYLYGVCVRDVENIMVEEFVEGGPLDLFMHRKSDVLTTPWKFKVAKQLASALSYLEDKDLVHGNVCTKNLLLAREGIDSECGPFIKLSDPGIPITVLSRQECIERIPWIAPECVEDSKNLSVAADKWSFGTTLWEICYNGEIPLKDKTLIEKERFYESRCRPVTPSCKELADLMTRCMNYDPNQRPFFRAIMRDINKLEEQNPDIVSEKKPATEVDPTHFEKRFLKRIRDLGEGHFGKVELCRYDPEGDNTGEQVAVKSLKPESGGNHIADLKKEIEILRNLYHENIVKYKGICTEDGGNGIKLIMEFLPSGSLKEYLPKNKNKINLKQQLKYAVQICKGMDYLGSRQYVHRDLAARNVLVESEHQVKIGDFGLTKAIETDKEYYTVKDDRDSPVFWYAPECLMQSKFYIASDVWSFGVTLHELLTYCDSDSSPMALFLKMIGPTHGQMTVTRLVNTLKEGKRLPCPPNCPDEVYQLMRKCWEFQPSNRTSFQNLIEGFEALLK
Experiment: Inhibition of recombinant human N-terminal GST-tagged JAK1 (850 to 1154 residues) expressed in baculovirus expression system using Ulight-Poly GT as substrate incubated for 2 hrs by Lanthascreen TR-FRET assay
pIC50: −log10 of the molar value.
value kind: pIC50

Worked cases, pIC50 given:
C=CC(=O)Nc1cccc(Nc2nc(Nc3ccc(B(O)O)cc3)ncc2C(F)(F)F)c1: < 6.00
C=CC(=O)Nc1cccc(Nc2nc(Nc3ccc4c(c3)B(O)OCC4)ncc2C(F)(F)F)c1: < 6.00
C=CC(=O)Nc1cccc(Nc2nc(Nc3ccc(OCCOC)cc3)ncc2F)c1: < 6.00
C=CC(=O)Nc1cccc(Nc2nc(Nc3ccc4c(c3)COB4O)ncc2C(F)(F)F)c1: < 6.00

Recorded pIC50 (compound C=CC(=O)Nc1cccc(Nc2nc(Nc3ccc4c(c3)B(O)OC4(C)C)ncc2C(F)(F)F)c1 ): < 6.00

Recorded pIC50 (compound C=CC(=O)Nc1cccc(Nc2nc(Nc3ccc4c(c3)B(O)OC4)ncc2C(F)(F)F)c1 ): < 6.00

Recorded pIC50 (compound C=CC(=O)Nc1cccc(Oc2nc(Nc3ccc4c(c3)COB4O)ncc2OC)c1 ): < 6.00

---

Collected remaining at 1 h, 0.2 µM values appear next to each entry.
Assay: in vitro
Conditions: human, liver microsomes
Description: Metabolic stability in human liver microsomes assessed as compound remaining at 0.2 uM incubated for 60 mins by UPLC-MS/MS analysis
Numbers only here, please. The scale is %.

C=CC(=O)Nc1cccc(Nc2nc(Nc3ccc4c(c3)B(O)OC4)ncc2C(F)(F)F)c1: 45
C=CC(=O)Nc1cccc(Nc2nc(Nc3ccc4c(c3)COB4O)ncc2C(F)(F)F)c1: 47.2

Recorded remaining at 1 h, 0.2 µM (compound C=CC(=O)Nc1cccc(Nc2nc(Nc3ccc(OCCOC)cc3)ncc2F)c1 ): 38.8
